Numbers sourced from ChEMBL document CHEMBL3792302.

System: Rattus norvegicus
assayText: Antihypertensive activity in SHR rat assessed as reduction in mean blood pressure at 5 mg/kg, po measured upto 24 hrs post dosing
Assay type: functional, organism-based
The source made the active and inactive calls. The calls are words filed in the database; no cut-off is given here.
Classes used: YES for active, NO for inactive

>  <substanceSmiles>
CCc1nc2c(C)cc(-c3nc4ccccc4n3C)cc2n1Cc1ccc2c(ccn2-c2ccccc2C(=O)O)c1

>  <assignedCategory>
NO

$$$$
>  <substanceSmiles>
CCc1nc2c(C)cc(-c3ccccn3)cc2n1Cc1cccc2c1ccn2-c1ccccc1C(=O)O

>  <assignedCategory>
YES

$$$$
>  <substanceSmiles>
CCCCc1nc2c(C)cc(-c3nc4ccccc4n3C)cc2n1Cc1cccc2c1ccn2-c1ccccc1C(=O)O

>  <assignedCategory>
NO

$$$$
>  <substanceSmiles>
Cc1cc(-c2nc3ccccc3n2C)cc2c1nc(C)n2Cc1cccc2c1ccn2-c1ccccc1C(=O)O

>  <assignedCategory>
NO

$$$$
>  <substanceSmiles>
CCCc1nc2c(C)cc(-c3nc4ccccc4n3C)cc2n1Cc1ccc2c(ccn2-c2ccccc2C(=O)O)c1

>  <assignedCategory>
YES

$$$$
>  <substanceSmiles>
CCCCc1nc2c(C)cc(-c3ccccn3)cc2n1Cc1cccc2c1ccn2-c1ccccc1C(=O)O

>  <assignedCategory>
YES

$$$$
>  <substanceSmiles>
CCCc1nc2c(C)cc(-c3nc4ccccc4n3C)cc2n1Cc1cccc2c1ccn2-c1ccccc1-c1nnn[nH]1

>  <assignedCategory>
YES

$$$$
>  <substanceSmiles>
CCCc1nc2c(C)cc(-c3nc4ccccc4n3C)cc2n1Cc1cccc2c1ccn2-c1ccccc1C(=O)O

>  <assignedCategory>
YES

$$$$
>  <substanceSmiles>
CCCCCc1nc2c(C)cc(-c3nc4ccccc4n3C)cc2n1Cc1cccc2c1ccn2-c1ccccc1C(=O)O

>  <assignedCategory>
NO

$$$$
